Listed next: entries and their corresponding IC50.
molecular target: PDE4B2 (Homo sapiens, UniProt Q07343); experiment: PDE activity two-step radioassay, PDE4B2 lysate; settings: PDE4B2 from transfected HEK293 lysate, cAMP hydrolysis, n = 3
Sequence (Q07343 1-564 isoform Q07343-2): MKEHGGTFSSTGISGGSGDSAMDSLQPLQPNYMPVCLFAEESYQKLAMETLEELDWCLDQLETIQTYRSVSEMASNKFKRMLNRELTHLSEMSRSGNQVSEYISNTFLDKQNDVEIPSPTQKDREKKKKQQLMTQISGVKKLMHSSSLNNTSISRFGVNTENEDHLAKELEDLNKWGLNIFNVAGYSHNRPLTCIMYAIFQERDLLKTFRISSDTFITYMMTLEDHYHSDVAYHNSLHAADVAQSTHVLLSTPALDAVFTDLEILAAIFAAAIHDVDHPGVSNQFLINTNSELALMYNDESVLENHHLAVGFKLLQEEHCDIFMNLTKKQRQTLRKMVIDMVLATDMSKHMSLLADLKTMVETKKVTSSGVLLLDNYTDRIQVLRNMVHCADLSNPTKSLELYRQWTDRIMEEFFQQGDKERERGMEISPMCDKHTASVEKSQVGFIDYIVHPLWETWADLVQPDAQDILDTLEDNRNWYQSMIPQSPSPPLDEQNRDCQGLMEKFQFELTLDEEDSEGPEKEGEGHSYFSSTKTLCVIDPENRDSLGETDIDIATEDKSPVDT
API: value field is a number in µM; no unit string.

>  <COMPOUND>
CCOC(=O)[C@H](CCc1ccccc1)N[C@@H](C)C(=O)N1Cc2cc(OC)c(OC)cc2C[C@H]1C(=O)O

>  <EXPERIMENTAL SYSTEM>
PDE4B2 (Homo sapiens, UniProt Q07343)

>  <UNIT ABBREVIATION>
µM

>  <IC50>
38

$$$$

Consider COc1cc2c(cc1OC)CN(C(=O)Cn1cnc3ccccc3c1=O)[C@H](C(=O)O)C2 (racemic) . Its measured IC50 is 89

The compound listed as COc1cc2c(cc1OC)CN(C(=O)CCc1c[nH]c3ccccc13)[C@H](C(=O)O)C2 (racemic) shows IC50 equal to 6.9

====

biological target: PDE4D5 (Homo sapiens, UniProt Q08499); experiment: PDE activity two-step radioassay, PDE4D5 lysate; settings: PDE4D5, n = 3
Sequence (Q08499 1-745 isoform Q08499-6): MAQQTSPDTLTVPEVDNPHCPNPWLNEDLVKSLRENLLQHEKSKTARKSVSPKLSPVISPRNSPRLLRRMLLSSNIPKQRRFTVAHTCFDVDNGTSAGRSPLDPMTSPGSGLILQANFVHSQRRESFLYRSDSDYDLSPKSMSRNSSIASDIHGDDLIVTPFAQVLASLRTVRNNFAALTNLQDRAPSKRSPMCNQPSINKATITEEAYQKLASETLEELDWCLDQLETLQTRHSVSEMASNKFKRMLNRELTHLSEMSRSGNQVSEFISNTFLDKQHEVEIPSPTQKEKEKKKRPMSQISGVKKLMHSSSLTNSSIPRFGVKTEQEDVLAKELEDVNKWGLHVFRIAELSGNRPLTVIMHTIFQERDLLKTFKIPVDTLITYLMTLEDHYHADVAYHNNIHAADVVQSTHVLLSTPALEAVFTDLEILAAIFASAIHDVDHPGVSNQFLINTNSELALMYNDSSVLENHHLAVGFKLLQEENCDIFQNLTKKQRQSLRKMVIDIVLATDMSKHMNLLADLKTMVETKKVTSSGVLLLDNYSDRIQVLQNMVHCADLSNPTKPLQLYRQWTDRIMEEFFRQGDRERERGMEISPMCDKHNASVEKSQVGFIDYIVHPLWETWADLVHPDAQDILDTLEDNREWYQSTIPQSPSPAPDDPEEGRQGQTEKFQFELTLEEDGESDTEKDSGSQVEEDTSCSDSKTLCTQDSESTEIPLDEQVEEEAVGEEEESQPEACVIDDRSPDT
MEASURED PROPERTY: IC50 (µM)
Reply numerically in µM, unit not repeated.

For record `CCOC(=O)[C@H](CCc1ccccc1)N[C@@H](C)C(=O)N1Cc2cc(OC)c(OC)cc2C[C@H]1C(=O)O` the listed IC50 is 230
